Reference source: patent US11453642B2

Assay: Pharmacokinetic study after a single oral administration to mice
Format: in vivo
Settings: female, Balb/c, mouse, plasma, po, 100 mg/kg, female Balb/c mice, single oral 100 mg/kg in 0.5% methylcellulose; plasma; read-out: cmax
Measured Attribute: cmax (ng/mL)

# Compound, Reported
rows = [
    ("CCCCCCCCCCCCCCCCN(C)CC(O)CS(=O)(=O)O (stereo not shown)", 1060),
]

---

Test: Pharmacokinetic study after a single oral administration to mice
Assay type: in vivo
Details: female Balb/c mice, single oral 100 mg/kg; extrapolated to infinity; 100 mg/kg
Each entry below lists one item and its recorded AUC0-inf value.

# Compound, AUC0-inf (ng·h/mL)
data = [
    ("CCCCCCCCCCCCCCCCN(C)CC(O)CS(=O)(=O)O (stereo not shown) [KP-0726.11]", 3758),
    ("CCCCCCCCCCCCCCCCN(C)CC(O)CS(=O)(=O)O (stereo not shown) [KP-0722.11]", 3179),
    ("CCCCCCCCCCCCCCCCN(C)CC(O)CS(=O)(=O)O (stereo not shown) [2208-CF/1]", 4412),
    ("CCCCCCCCCCCCCCCCN(C)CC(O)CS(=O)(=O)O (stereo not shown) [TN-0382.11]", 3547),
]

---

Assay: Pharmacokinetic study after a single oral administration to mice
Format: in vivo
Settings: female, Balb/c, mouse, plasma, po, 100 mg/kg, female Balb/c mice, single oral 100 mg/kg in 0.5% methylcellulose; plasma; read-out: tmax

# Compound, tmax
measured = [
    ("CCCCCCCCCCCCCCCCN(C)CC(O)CS(=O)(=O)O (stereo not shown)", "1 to 2 h"),
]
